SYSTEM: human Kv1.5 (Homo sapiens, UniProt P22460)
Construct: stably transfected, blasticidin selection
Sequence (P22460 whole entry): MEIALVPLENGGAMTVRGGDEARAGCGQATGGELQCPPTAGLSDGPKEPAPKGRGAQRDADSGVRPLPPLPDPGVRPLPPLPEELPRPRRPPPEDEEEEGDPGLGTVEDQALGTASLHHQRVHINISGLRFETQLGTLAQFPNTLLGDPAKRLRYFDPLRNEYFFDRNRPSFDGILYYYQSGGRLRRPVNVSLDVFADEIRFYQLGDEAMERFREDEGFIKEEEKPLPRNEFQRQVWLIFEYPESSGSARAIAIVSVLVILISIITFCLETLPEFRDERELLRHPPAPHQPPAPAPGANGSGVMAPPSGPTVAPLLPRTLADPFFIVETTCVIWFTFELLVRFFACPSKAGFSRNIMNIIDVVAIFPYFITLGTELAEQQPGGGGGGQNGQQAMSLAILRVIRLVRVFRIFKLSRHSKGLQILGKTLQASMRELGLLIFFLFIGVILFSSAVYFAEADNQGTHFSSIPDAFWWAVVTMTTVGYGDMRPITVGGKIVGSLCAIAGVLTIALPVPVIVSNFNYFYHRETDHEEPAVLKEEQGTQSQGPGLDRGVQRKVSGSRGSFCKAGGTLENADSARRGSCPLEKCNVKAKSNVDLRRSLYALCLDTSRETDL
EXPERIMENT_SUMMARY: Kv1.5 Rb+ efflux assay
ASSAY_CONDITIONS: inhibition of 86Rb+ efflux through Kv1.5, cells stably transfected with human Kv1.5, 10 point concentration response curves n=2
hey, just use Yes if measured IC50 is less than 300 nM, otherwise No

# COMPOUND, SYSTEM, CLASSIFICATION
measured = [
    ("CN(C)c1nc(NCc2ccccn2)c2c(-c3ccccc3)csc2n1 [Example 198]", "human Kv1.5 (Homo sapiens, UniProt P22460)", "No"),
    ("CC(Nc1ncnc2scc(-c3ccccc3)c12)c1ccccn1 (centres unmarked) [Example 149]", "human Kv1.5 (Homo sapiens, UniProt P22460)", "No"),
    ("Nc1nc(NCc2ccccn2)c2c(-c3ccccc3)csc2n1 [Example 192]", "human Kv1.5 (Homo sapiens, UniProt P22460)", "No"),
    ("COCCNc1nc(NCc2ccccn2)c2c(-c3ccccc3)csc2n1 [Example 189]", "human Kv1.5 (Homo sapiens, UniProt P22460)", "Yes"),
    ("COc1ccc(-c2csc3ncnc(NCc4ccccn4)c23)cc1 [Example 138]", "human Kv1.5 (Homo sapiens, UniProt P22460)", "Yes"),
]

====

# key: entry, value: melting point

# ENTRY_SMILES, melting point
data = [
    ("Cc1nc(NCc2ccccn2)c2c(-c3ccccc3)csc2n1", "110 to 112 °C"),
    ("Cn1ccc2cc(-c3csc4ncnc(NCc5ccccn5)c34)ccc21", "184 to 185 °C"),
    ("OCCc1nc(NCc2ccccn2)c2c(-c3ccccc3)csc2n1", "90 to 92 °C"),
    ("c1ccc(-c2csc3nc(NCC4CC4)nc(NCc4ccccn4)c23)cc1", "109 to 111 °C"),
    ("ClCc1nc(NCc2ccccn2)c2c(-c3ccccc3)csc2n1", "97 to 99 °C"),
    ("c1ccc(-c2csc3ncnc(NCc4ccco4)c23)cc1", "77 to 79 °C"),
]

Data origin, for the record: patent US8022076B2
